B1: UBE2R2 (parent)
chain: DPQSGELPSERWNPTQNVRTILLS

# Variants of: B1
# experiment-summary: protein stability index of a GFP-peptide fusion (GPS, HEK-293T) (PSI 1-6); higher = more stable;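 note: lentivirally expressed fusions sorted by FACS into six bins by GFP to DsRed ratio, PSI derived from sequencing read proportions per bin multiplied by bin number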
# experimental-setup: c terminus: a fixed tail appended
As shown below, each of these variants has a reported protein stability index value.
Would you mind answering with just the numeric figure?

Looking up V18E , I see its protein stability index listed as 4.06

Looking up W12C , I see its protein stability index listed as 3.94

Looking up Q16D , I see its protein stability index listed as 3.97

Looking up N13S , I see its protein stability index listed as 4

Looking up P2K , I see its protein stability index listed as 3.95

Looking up Q3T , I see its protein stability index listed as 4.11

Looking up V18S , I see its protein stability index listed as 3.92

Looking up L22M , I see its protein stability index listed as 4.11

Looking up G5D , I see its protein stability index listed as 3.98

Looking up L22T , I see its protein stability index listed as 4.1

Looking up P14E , I see its protein stability index listed as 4.08
